# Tested on: Vero E6 infected with SARS-CoV-2
# assay_summary: inhibition of SARS-CoV-2 cytopathic effect; higher = more antiviral protection, active = above 15
# experimental_context: 8.33 nM; 48 h
property_measured: inhibition of SARS-CoV-2 cytopathic effect (%)
Hi! Could you send only the number? It should be in %, unit omitted.

Example compounds with recorded inhibition of SARS-CoV-2 cytopathic effect:
compound	tested_target	measured_result
CN(C)c1ccccc1CN1CCCN(Cc2ccccc2N(C)C)C1c1ccncc1	Vero E6 infected with SARS-CoV-2	1.84
COc1cc2c(cc1O)C(CCc1ccc(Cl)cc1)N(C)CC2 (stereo not given)	Vero E6 infected with SARS-CoV-2	2.27
O=c1nc2ccccc2c2n1CC(CN1CCN(c3ccccc3)CC1)N2 (stereo not given)	Vero E6 infected with SARS-CoV-2	5.11
Cc1cccc(Cc2c[nH]cn2)c1C	Vero E6 infected with SARS-CoV-2	-0.01
c1cnc2cc3c(cc2n1)[C@@H]1CNC[C@H]3C1	Vero E6 infected with SARS-CoV-2	1.67
O=C(CCBr)N1CC[N+]2(CC1)CC[N+]1(CCN(C(=O)CCBr)CC1)CC2	Vero E6 infected with SARS-CoV-2	-0.86

q: Checklist item: inhibition of SARS-CoV-2 cytopathic effect tested on Vero E6 infected with SARS-CoV-2, entry CC[N+](C)(CC)CC(=O)Nc1c(C)cccc1C [N-methyllidocaine-iodide] , value?
a: 2.44

q: Checklist item: inhibition of SARS-CoV-2 cytopathic effect tested on Vero E6 infected with SARS-CoV-2, entry O=C1CC2(CCCC2)CC(=O)N1CCCCNC[C@H]1COc2ccccc2O1 (racemic) , value?
a: -1.41

q: Checklist item: inhibition of SARS-CoV-2 cytopathic effect tested on Vero E6 infected with SARS-CoV-2, entry OC(CCCN1CCN(c2ncc(F)cn2)CC1)c1ccc(F)cc1 (stereo not given) , value?
a: -0.94

q: Checklist item: inhibition of SARS-CoV-2 cytopathic effect tested on Vero E6 infected with SARS-CoV-2, entry COc1ccc(/C=C\c2cc(OC)c(OC)c(OC)c2)cc1OP(=O)(O)O , value?
a: 0.77

* * *

# Test system: Vero E6 infected with SARS-CoV-2
# assay_summary: inhibition of SARS-CoV-2 cytopathic effect; higher = more antiviral protection, active = above 15
# experimental_context: 833.33 nM; 48 h
# inhibition of SARS-CoV-2 cytopathic effect listing for each entry below

compound	measured_result
COc1cccc(C=NCCN=Cc2cccc(OC)c2[O-])c1[O-].[Cl-].[Mn+3]	1.11% (inactive)
CS(=O)(=O)Nc1ccc([N+](=O)[O-])cc1Oc1ccccc1 [nimesulide]	2.18% (inactive)
CN1CCC[C@@H]1CCSc1ccc(O)cc1	-1.07% (inactive)
O=C(Nc1ccc(Cl)cc1)Nc1ccc(Cl)c(Cl)c1	-1.44% (inactive)
CC[C@H]1OC(=O)[C@H](C)[C@@H](O[C@H]2C[C@@](C)(OC)[C@@H](O)[C@H](C)O2)[C@H](C)[C@@H](O[C@@H]2O[C@H](C)C[C@H](N(C)C)[C@H]2O)[C@](C)(OC)C[C@@H](C)C(=O)[C@H](C)[C@@H](O)[C@]1(C)O	1.42% (inactive)

q: Quick check: inhibition of SARS-CoV-2 cytopathic effect of Cc1cc(C)cc(NC(=O)Cc2ccc(OC(C)(C)C(=O)O)cc2)c1 ?
a: 1.37% (inactive)

q: Quick check: inhibition of SARS-CoV-2 cytopathic effect of CN1C[C@H](CNC(=O)OCc2ccccc2)C[C@@H]2c3cccc4c3c(cn4C)C[C@H]21 ?
a: -6.12% (inactive)

q: Quick check: inhibition of SARS-CoV-2 cytopathic effect of O=C(OC(C(F)(F)F)C(F)(F)F)N1CCN(Cc2cccc(Oc3ccccc3)c2)CC1 ?
a: 3.51% (inactive)

* * *

# Test system: Vero E6 infected with SARS-CoV-2
# assay_summary: morphology score (similarity to uninfected cells); higher = more like uninfected cells
# experimental_context: 24 h
property_measured: morphology score
// print number alone

Example compounds with recorded morphology score:
compound	morphology score
CCS(=O)(=O)Nc1ccc2c(c1)/C(=C(/Nc1ccc(CN3CCCCC3)cc1)c1ccccc1)C(=O)N2 [hesperadin] (10 µM)	-0.262
C=CCNc1ncnc2ccc(Br)cc12 (10 µM)	0.19
C[C@@H]1CN(Cc2ccc(F)cc2)[C@@H](C)CN1C(=O)c1cc2c(C(=O)C(=O)N(C)C)cn(C)c2cc1Cl [talmapimod] (10 µM)	0.103

# evaluate next
q: Quick check: morphology score of NC[C@H]1O[C@H](O[C@H]2[C@H](O[C@@H]3O[C@H](CO)[C@@H](O)[C@H]3O)[C@@H](O)[C@H](N)C[C@@H]2N)[C@H](N)[C@@H](O)[C@@H]1O [ribostamycin-sulfate] (10 µM) ?
a: 0.199

* * *

# Tested on: Vero E6 infected with SARS-CoV-2
# assay_summary: SARS-CoV-2 infection rate relative to infected DMSO; higher = more infection, active = 60 or less
# experimental_context: 24 h
# SARS-CoV-2 infection rate listing for each entry below
Hi! Could you send only the number? It should be in %, unit omitted.

Example molecules with recorded SARS-CoV-2 infection rate:
molecule	tested_target	SARS-CoV-2 infection rate, %
COc1ccc2c(c1)/C(=C/c1cnc[nH]1)C(=O)N2 (0.833333 µM)	Vero E6 infected with SARS-CoV-2	109
C[N+]1(C)[C@@H]2C[C@@H](OC(=O)[C@H](CO)c3ccccc3)C[C@H]1[C@@H]1O[C@@H]12 [methscopolamine] (10 µM)	Vero E6 infected with SARS-CoV-2	96
C[N+]1(C)CCc2cc3c(cc2[C@H]1[C@@H]1OC(=O)c2c1ccc1c2OCO1)OCO3 [bicuculline-methochloride-(-)] (10 µM)	Vero E6 infected with SARS-CoV-2	110
CNc1nc(NCc2ccc(NS(C)(=O)=O)cc2Cl)cc(-c2ccccn2)n1 (10 µM)	Vero E6 infected with SARS-CoV-2	97.5

q: Quick check: SARS-CoV-2 infection rate of COc1cc(Nc2c(C#N)cnc3cc(OCCCN4CCN(C)CC4)c(OC)cc23)c(Cl)cc1Cl [bosutinib] (10 µM) ?
a: 96.5

q: Quick check: SARS-CoV-2 infection rate of CC(C)C[C@@H](NC(=O)[C@H](C)NC(=O)CNC(=O)[C@@H](NC=O)C(C)C)C(=O)N[C@@H](C)C(=O)N[C@@H](C(=O)N[C@H](C(=O)N[C@@H](C(=O)N[C@@H](Cc1c[nH]c2ccccc12)C(=O)N[C@H](CC(C)C)C(=O)N[C@@H](Cc1c[nH]c2ccccc12)C(=O)N[C@H](CC(C)C)C(=O)N[C@@H](Cc1c[nH]c2ccccc12)C(=O)N[C@H](CC(C)C)C(=O)N[C@@H](Cc1c[nH]c2ccccc12)C(=O)NCCO)C(C)C)C(C)C)C(C)C [gramicidin] (10 µM) ?
a: 100

q: Quick check: SARS-CoV-2 infection rate of Cc1nc(C)c(-c2ccc(C3CCC(CC(=O)O)CC3)cc2)nc1C(N)=O (centres undefined) (10 µM) ?
a: 89.5

q: Quick check: SARS-CoV-2 infection rate of CCOC(=O)[C@@]1(CCCCCCOc2ccc(Cl)cc2)CO1 [etomoxir] (10 µM) ?
a: 109

q: Quick check: SARS-CoV-2 infection rate of COc1cc(C(=O)NCc2ccc(OCCN(C)C)cc2)cc(OC)c1OC [trimethobenzamide] (10 µM) ?
a: 110

q: Quick check: SARS-CoV-2 infection rate of Cc1cc(Nc2ncnc3ccc(-c4ccc(CNCCS(C)(=O)=O)o4)cc23)ccc1Oc1ccn2ncnc2c1 [HER2-Inhibitor-1] (10 µM) ?
a: 95

q: Quick check: SARS-CoV-2 infection rate of CN(C)c1ccc(C(=C2C=CC(=[N+](C)C)C=C2)c2ccc(N(C)C)cc2)cc1 [crystal-violet] (10 µM) ?
a: 114

q: Quick check: SARS-CoV-2 infection rate of COc1ccccc1N1CCN(CC(O)COc2cc(OC)c(OC)c(OC)c2)CC1 (centres undefined) [enciprazine] (10 µM) ?
a: 110

q: Quick check: SARS-CoV-2 infection rate of O=C(/C=C/N1C[C@H]2C[C@@H]1CN2c1ccccn1)c1ccccc1O (10 µM) ?
a: 116

q: Quick check: SARS-CoV-2 infection rate of COc1ccc(S(=O)(=O)N2CCC[C@H]2C(=O)Nc2cc(C)cc(C)c2)cc1 (10 µM) ?
a: 113

q: Quick check: SARS-CoV-2 infection rate of C[C@@H]1CC(=O)NN=C1c1ccc(NN=C(C#N)C#N)cc1 [levosimendan] (10 µM) ?
a: 117

q: Quick check: SARS-CoV-2 infection rate of CC(=O)O[C@@]12CO[C@@H]1C[C@H](O)[C@@]1(C)C(=O)[C@H](O)C3=C(C)[C@@H](O)C[C@@](O)([C@@H](OC(=O)c4ccccc4)[C@H]21)C3(C)C [10-deacetylbaccatin] (10 µM) ?
a: 109
